Entries and their measured viability, T/C follow.
- Test system: 327498-153-R-J2-PDC multicell spheroid viability
- assayRemarks: Anticancer human tumor 327498-153-R-J2-PDC patient-derived uterine carcinosarcoma cell line growth inhibition [IpAb]
- protocolConditions: second compound 10 µM; first compound 0.1 µM; active compounds read low

Example entries begin here.
Cn1ncc(Cl)c1-c1cc(C(=O)NC(CN)Cc2cccc(F)c2)sc1Cl (stereo not given) + CC(C)NCC(C(=O)N1CCN(c2ncnc3c2C(C)CC3O)CC1)c1ccc(Cl)cc1 | 45.2%
Cn1ncnc1[C@H]1c2n[nH]c(=O)c3cc(F)cc(c23)N[C@@H]1c1ccc(F)cc1 + CC(C)NCC(C(=O)N1CCN(c2ncnc3c2C(C)CC3O)CC1)c1ccc(Cl)cc1 | 10.4%
Cn1nccc1Nc1nccc(-c2ccn(C(CO)c3ccc(Cl)c(F)c3)c(=O)c2)n1 (stereo not given) + CC(C)NCC(C(=O)N1CCN(c2ncnc3c2C(C)CC3O)CC1)c1ccc(Cl)cc1 | 21.5%
CCCS(=O)(=O)Nc1ccc(F)c(C(=O)c2c[nH]c3ncc(-c4ccc(Cl)cc4)cc23)c1F + CC(C)NCC(C(=O)N1CCN(c2ncnc3c2C(C)CC3O)CC1)c1ccc(Cl)cc1 | 41.8%

Next compound, please.
Query string: Return value of viability, T/C for input C=CC(=O)N1CCN(c2nc(=O)n(-c3c(C)ccnc3C(C)C)c3nc(-c4c(O)cccc4F)c(F)cc23)C(C)C1 (stereo not given) + CC(C)NCC(C(=O)N1CCN(c2ncnc3c2C(C)CC3O)CC1)c1ccc(Cl)cc1 , no commentary.
Result string: 14.2%

* * *

- Tested on: 327498-153-R-J2-PDC multicell spheroid viability
- assayRemarks: Anticancer human tumor 327498-153-R-J2-PDC cell line growth inhibition [IpAb]; active = viability on the fitted dose curve at most 10% of control; inactive = the rest;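 note: spheroids exposed to agents for 7 days; 100% = DMSO vehicle control viability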
- protocolConditions: second compound 0.0316 µM; first compound 3.16 µM
- Procedure: Combinatorial screen of targeted agents with ipatasertib and abemaciclib in multi-cell type tumor spheroids […] Compounds. […] If the clinical Cmax for an agent had not been determined, the highest concentration tested was 10 microM. NCI60 Cell Culture. […] The optimal seeding densities for each of the cell lines at each time point assessed were determined prior to performing the concentration response studies. […]
Permitted responses: active, inactive

Some solved cases for reference:
C=CCn1c(=O)c2cnc(Nc3ccc(N4CCN(C)CC4)cc3)nc2n1-c1cccc(C(C)(C)O)n1 + CCN1CCN(Cc2ccc(Nc3ncc(F)c(-c4cc(F)c5nc(C)n(C(C)C)c5c4)n3)nc2)CC1 | active
Cn1ncc(Cl)c1-c1cc(C(=O)NC(CN)Cc2cccc(F)c2)sc1Cl (centres undefined) + CCN1CCN(Cc2ccc(Nc3ncc(F)c(-c4cc(F)c5nc(C)n(C(C)C)c5c4)n3)nc2)CC1 | inactive
Cc1nc(NC(=O)N2CCCC2C(N)=O)sc1-c1ccnc(C(C)(C)C(F)(F)F)c1 (centres undefined) + CCN1CCN(Cc2ccc(Nc3ncc(F)c(-c4cc(F)c5nc(C)n(C(C)C)c5c4)n3)nc2)CC1 | inactive

Query compound follows.
Query string: Fill in: this test's call for CCCS(=O)(=O)Nc1ccc(F)c(C(=O)c2c[nH]c3ncc(-c4ccc(Cl)cc4)cc23)c1F + CCN1CCN(Cc2ccc(Nc3ncc(F)c(-c4cc(F)c5nc(C)n(C(C)C)c5c4)n3)nc2)CC1 is ___
Result string: inactive

* * *

- System: 327498-153-R-J2-PDC multicell spheroid viability
- assayRemarks: Anticancer human tumor 327498-153-R-J2-PDC cell line growth inhibition [IpAb];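 note: spheroids exposed to agents for 7 days; 100% = DMSO vehicle control viability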
- protocolConditions: second compound 0.1 µM; first compound 0.0316 µM; active compounds read low
measuredParameter: viability, T/C (%)
Express it in %; write the number only.

Cn1ncnc1[C@H]1c2n[nH]c(=O)c3cc(F)cc(c23)N[C@@H]1c1ccc(F)cc1 + CC(C)NCC(C(=O)N1CCN(c2ncnc3c2C(C)CC3O)CC1)c1ccc(Cl)cc1 | 43.1

Query string: Indicate the recorded viability, T/C value for this compound: Cc1nc(NC(=O)N2CCCC2C(N)=O)sc1-c1ccnc(C(C)(C)C(F)(F)F)c1 (stereo unspecified) + CCN1CCN(Cc2ccc(Nc3ncc(F)c(-c4cc(F)c5nc(C)n(C(C)C)c5c4)n3)nc2)CC1
Result string: 61.8

Query string: Look up and report measured viability, T/C for this entry: CCCS(=O)(=O)Nc1ccc(F)c(C(=O)c2c[nH]c3ncc(-c4ccc(Cl)cc4)cc23)c1F + CCN1CCN(Cc2ccc(Nc3ncc(F)c(-c4cc(F)c5nc(C)n(C(C)C)c5c4)n3)nc2)CC1
Result string: 73.4

Query string: Item C=CCn1c(=O)c2cnc(Nc3ccc(N4CCN(C)CC4)cc3)nc2n1-c1cccc(C(C)(C)O)n1 + CC(C)NCC(C(=O)N1CCN(c2ncnc3c2C(C)CC3O)CC1)c1ccc(Cl)cc1 : provide viability, T/C
Result string: 90.3

Query string: Indicate the recorded viability, T/C value for this compound: CC(C)n1nc(-c2ccc3oc(N)nc3c2)c2c(N)ncnc21 + CCN1CCN(Cc2ccc(Nc3ncc(F)c(-c4cc(F)c5nc(C)n(C(C)C)c5c4)n3)nc2)CC1
Result string: 20.7

Query string: Note down viability, T/C recorded for C=CC(=O)N1CCN(c2nc(=O)n(-c3c(C)ccnc3C(C)C)c3nc(-c4c(O)cccc4F)c(F)cc23)C(C)C1 (stereo unspecified) + CC(C)NCC(C(=O)N1CCN(c2ncnc3c2C(C)CC3O)CC1)c1ccc(Cl)cc1
Result string: 66.7

Query string: Using known records, supply viability, T/C for Cn1ncc(Cl)c1-c1cc(C(=O)NC(CN)Cc2cccc(F)c2)sc1Cl (stereo unspecified) + CC(C)NCC(C(=O)N1CCN(c2ncnc3c2C(C)CC3O)CC1)c1ccc(Cl)cc1
Result string: 98.5

Query string: Consider the compound CCCS(=O)(=O)Nc1ccc(F)c(C(=O)c2c[nH]c3ncc(-c4ccc(Cl)cc4)cc23)c1F + CC(C)NCC(C(=O)N1CCN(c2ncnc3c2C(C)CC3O)CC1)c1ccc(Cl)cc1 and give its recorded viability, T/C.
Result string: 94.3

Query string: State its viability, T/C: Cc1nc(NC(=O)N2CCCC2C(N)=O)sc1-c1ccnc(C(C)(C)C(F)(F)F)c1 (stereo unspecified) + CC(C)NCC(C(=O)N1CCN(c2ncnc3c2C(C)CC3O)CC1)c1ccc(Cl)cc1
Result string: 91.1

Query string: Identify measured viability, T/C corresponding to C=CCn1c(=O)c2cnc(Nc3ccc(N4CCN(C)CC4)cc3)nc2n1-c1cccc(C(C)(C)O)n1 + CCN1CCN(Cc2ccc(Nc3ncc(F)c(-c4cc(F)c5nc(C)n(C(C)C)c5c4)n3)nc2)CC1
Result string: 69.1

Query string: Give reported viability, T/C value for C=CC(=O)N1CCN(c2nc(=O)n(-c3c(C)ccnc3C(C)C)c3nc(-c4c(O)cccc4F)c(F)cc23)C(C)C1 (stereo unspecified) + CCN1CCN(Cc2ccc(Nc3ncc(F)c(-c4cc(F)c5nc(C)n(C(C)C)c5c4)n3)nc2)CC1
Result string: 42.5
